Data origin, for the record: patent US20240374535A1

- System: Pseudomonas aeruginosa ATCC 27853
- test.details: MIC assay (planktonic growth inhibition, OD600)
- Assay type: cell-based, P. aeruginosa
- settings: Pseudomonas aeruginosa, ATCC27853, 24 h, read-out: P. aeruginosa MIC50
pIC50: −log10 of the molar value.
reported.metric: pIC50

Problem: Quote pIC50 with test system Pseudomonas aeruginosa ATCC 27853 for CSSC [Di-methyl disulfide]
Solution: < 2.40

Problem: # lookup: Pseudomonas aeruginosa ATCC 27853 pIC50, key = c1ccc(CSSCc2ccccc2)cc1 [Di-benzyl disulfide]
Solution: < 2.40

Problem: Report pIC50 under test system Pseudomonas aeruginosa ATCC 27853 for CCSSCC [Di-ethyl disulfide] .
Solution: < 2.40

---

- Test system: Pseudomonas aeruginosa ATCC 27853 biofilm
- test.details: MBEC assay (biofilm eradication, CFU log reduction)
- Type: cell-based, P. aeruginosa
- settings: 48 h grown biofilm, 20 h treatment, CFU log reduction vs untreated
Answer each item with its documented P. aeruginosa MBEC mM with log reduction ≥1.
Entry rule: numbers only, all in mM.

Problem: In one line, give reported P. aeruginosa MBEC mM with log reduction ≥1 of the entry Cc1ccc(S[S+]([O-])c2ccc(C)cc2)cc1 (stereo not drawn) [Bis (p-tolyl) thiosulfinate] .
Solution: 1

Problem: # return recorded P. aeruginosa MBEC mM with log reduction ≥1 for input CC(C)S[S+]([O-])C(C)C (stereo not drawn) [Di-isopropyl thiosulfinate]
Solution: 0.125

Problem: Entry CSS(C)(=O)=O [Di-methyl thiosulfonate, methyl methane thiosulfonate] needs its P. aeruginosa MBEC mM with log reduction ≥1 filled in; supply it.
Solution: 2

Problem: Assign P. aeruginosa MBEC mM with log reduction ≥1 to the following record: O=S(=O)(Cc1ccccc1)SCc1ccccc1 [Di-benzyl thiosulfonate]
Solution: 0.125

Problem: Using known records, supply P. aeruginosa MBEC mM with log reduction ≥1 for [O-][S+](Sc1ccccc1)c1ccccc1 (stereo not drawn) [Di-phenyl thiosulfinate]
Solution: 2

Problem: Kindly indicate its recorded P. aeruginosa MBEC mM with log reduction ≥1. Item: [O-][S+](Cc1ccccc1)SCc1ccccc1 [D-benzyl thiosulfinate, Di-benzyl thiosulfinate]
Solution: 0.125

---

- System: Pseudomonas aeruginosa ATCC 27853 biofilm
- test.details: MBIC assay (biofilm inhibition, crystal violet)
- Format: cell-based, P. aeruginosa
- settings: 48 h incubation, absorbance 540 nm
Could you please report measured P. aeruginosa MBIC90 for the items listed next?

Problem: With Pseudomonas aeruginosa ATCC 27853 biofilm as the test system, provide measured P. aeruginosa MBIC90 for this compound: [O-][S+](Sc1ccccc1)c1ccccc1 (stereo not drawn) [Di-phenyl thiosulfinate]
Solution: >4 mM

Problem: Lab note: Pseudomonas aeruginosa ATCC 27853 biofilm assay, enter P. aeruginosa MBIC90 for Cc1ccc(S[S+]([O-])c2ccc(C)cc2)cc1 (stereo not drawn) [Bis (p-tolyl) thiosulfinate] here
Solution: >4 mM

Problem: Provide measured P. aeruginosa MBIC90 on Pseudomonas aeruginosa ATCC 27853 biofilm for Cc1ccc(SSc2ccc(C)cc2)cc1 [Di-p-tolyl disulfide] please.
Solution: 4 mM

Problem: Print Pseudomonas aeruginosa ATCC 27853 biofilm P. aeruginosa MBIC90 for CCCS[S+]([O-])CCC (stereo not drawn) [Di-n-propyl thiosulfinate, S-propyl propane-1-sulfinothioate] .
Solution: 2 mM

Problem: Write down the reported P. aeruginosa MBIC90 (system: Pseudomonas aeruginosa ATCC 27853 biofilm) of Clc1ccc(SSc2ccc(Cl)cc2)cc1 [Bis (4-chlorophenyl) disulfide, Bis(4-chlorophenyl) disulfide]
Solution: >4 mM

Problem: Provide P. aeruginosa MBIC90, tested on Pseudomonas aeruginosa ATCC 27853 biofilm, for CC(C)S[S+]([O-])C(C)C (stereo not drawn) [Di-isopropyl thiosulfinate] .
Solution: >4 mM

Problem: Send back Pseudomonas aeruginosa ATCC 27853 biofilm P. aeruginosa MBIC90 of [O-][S+](Cc1ccccc1)SCc1ccccc1 [D-benzyl thiosulfinate, Di-benzyl thiosulfinate] only.
Solution: >4 mM

Problem: Report P. aeruginosa MBIC90 on Pseudomonas aeruginosa ATCC 27853 biofilm for this entry: CCCSSCCC [Di-n-propyl disulfide]
Solution: >4 mM

Problem: Under Pseudomonas aeruginosa ATCC 27853 biofilm: report P. aeruginosa MBIC90 of CSS(C)(=O)=O [Di-methyl thiosulfonate, methyl methane thiosulfonate] .
Solution: 4 mM

---

- System: Pseudomonas aeruginosa ATCC 27853 biofilm
- test.details: MBEC assay (biofilm eradication, CFU log reduction)
- Format: cell-based, P. aeruginosa
- settings: Pseudomonas aeruginosa, ATCC27853; 48 h grown biofilm, 20 h treatment, CFU log reduction vs untreated; read-out: P. aeruginosa MBEC mM with log reduction ≥1
- Procedure: The exact weighed amount was noted and the volume of solvent to reach a 80 mM dilution calculated. Half of the volume was added first, by adding Tween 80. In a second step, the other half of the volume DMSO was added and the closed tube inverted 5-10 times and then vortexed very thoroughly for at least 30 seconds. If after this procedure unsolved material was still visible, the tube was placed in a shaker at 37° C. at 150 rpm for at least 30 minutes. […]
Could you please report measured minimal effective concentration for the items listed next?

Problem: Indicate the recorded minimal effective concentration value for this molecule: c1ccc(SSc2ccccc2)cc1 [Di-phenyl disulfide]
Solution: 0.125 mM

Problem: For the molecule CCCCCCCCCCSSCCCCCCCCCC [Di-n-decyl disulfide] , give its reported minimal effective concentration.
Solution: > 1 mM

Problem: Report minimal effective concentration for CCCCSSCCCC [Di-n-butyl disulfide]
Solution: > 1 mM

Problem: Give the reported value of minimal effective concentration for this record: c1coc(CSSCc2ccco2)c1 [Di-furfuryl disulfide]
Solution: > 1 mM

Problem: # return recorded minimal effective concentration for input CCCS[S+]([O-])CCC (stereo not shown) [Di-n-propyl thiosulfinate, S-propyl propane-1-sulfinothioate]
Solution: 4 mM

Problem: Quote minimal effective concentration reported for COc1ccc(SSc2ccc(OC)cc2)cc1 [Bis (4-methoxyphenyl) disulfide, Bis(4-methoxyphenyl) disulfide] please.
Solution: > 1 mM

Problem: Report minimal effective concentration, nothing else, for this molecule: Cc1ccc(SSc2ccc(C)cc2)cc1 [Di-p-tolyl disulfide]
Solution: > 1 mM

Problem: Specify reported minimal effective concentration for the molecule shown: CCCCCCSSCCCCCC [Di-n-hexyl disulfide]
Solution: > 1 mM

Problem: Provide only the value of recorded minimal effective concentration for CCCSSC [Methyl propyl disulfide]
Solution: > 1 mM

Problem: Tell me minimal effective concentration reported for Fc1ccc(SSc2ccc(F)cc2)cc1 [Bis (4-fluorophenyl) disulfide]
Solution: > 1 mM

Problem: Find the measured minimal effective concentration of CC(C)SSC(C)C [Di-isopropyl disulfide] and report it.
Solution: > 1 mM

Problem: For the molecule CCCSSCCC [Di-n-propyl disulfide] , give its reported minimal effective concentration.
Solution: > 4 mM

Problem: Indicate the recorded minimal effective concentration value for this molecule: Clc1ccc(SSc2ccc(Cl)cc2)cc1 [Bis (4-chlorophenyl) disulfide, Bis(4-chlorophenyl) disulfide]
Solution: > 1 mM

---

- Tested on: Pseudomonas aeruginosa ATCC 27853 biofilm
- test.details: MBEC assay (biofilm eradication, CFU log reduction)
- Assay type: cell-based, P. aeruginosa
- settings: 48 h grown biofilm, 20 h treatment, CFU log reduction vs untreated
For each entry below, report its P. aeruginosa MBEC mM with log reduction ≥1 value.

Problem: Note down P. aeruginosa MBEC mM with log reduction ≥1 recorded for CCCSS(=O)(=O)c1ccc(C)cc1 [S-propyl-4-methylbenzene thiosulfonate]
Solution: >1 mM

Problem: Provide one value: measured P. aeruginosa MBEC mM with log reduction ≥1 of O=[SH](O)=S.c1ccc(-c2ccccc2)cc1 [Di-phenyl thiosulfonate, phenyl benzene thiosulfonate]
Solution: >4 mM

Problem: Tell me P. aeruginosa MBEC mM with log reduction ≥1 reported for CCCCCCCCCCS[S+]([O-])CCCCCCCCCC (stereo not drawn) [S-decyl-1-decane thiosulfinate]
Solution: >1 mM
